B1: PPP2R2B (parent)
chain: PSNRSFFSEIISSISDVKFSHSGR

variants of: B1; test: protein stability index of a GFP-peptide fusion (GPS, HEK-293T) (PSI 1-6); higher = more stable; conditions: c terminus: a fixed tail appended;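 also: lentivirally expressed fusions sorted by FACS into six bins by GFP to DsRed ratio, PSI derived from sequencing read proportions per bin multiplied by bin number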
Recorded Endpoint: protein stability index
Give bare numbers.

The following variants have reported results that may help.
[[record]]
sequence_record = "PSNRSFFSEIISSISDVEFSHSGR [K18E]"
recorded_endpoint = "protein stability index"
readout_value = 2.35

[[record]]
sequence_record = "PSNRSFFSEIITSISDVKFSHSGR [S12T]"
recorded_endpoint = "protein stability index"
readout_value = 2.28

[[record]]
sequence_record = "LSNRSFFSEIISSISDVKFSHSGR [P1L]"
recorded_endpoint = "protein stability index"
readout_value = 2.19

[[record]]
sequence_record = "PSNRSFFSEIISSISQVKFSHSGR [D16Q]"
recorded_endpoint = "protein stability index"
readout_value = 2.42

[[record]]
sequence_record = "PSNRSFFSMIISSISDVKFSHSGR [E9M]"
recorded_endpoint = "protein stability index"
readout_value = 1.47

[[record]]
sequence_record = "PSNRSHFSEIISSISDVKFSHSGR [F6H]"
recorded_endpoint = "protein stability index"
readout_value = 2.99

[[record]]
sequence_record = "PSNRSFFSEIISSISDLKFSHSGR [V17L]"
recorded_endpoint = "protein stability index"
readout_value = 2.75

[[record]]
sequence_record = "PSNRSFFSEIISSISDVKFSHSGN [R24N]"
recorded_endpoint = "protein stability index"
readout_value = 2.81

[[record]]
sequence_record = "PSNRSFFSEIISSISDVKFSHSGY [R24Y]"
recorded_endpoint = "protein stability index"
readout_value = 3.23

[[record]]
sequence_record = "PSNRSFFSEIISSIIDVKFSHSGR [S15I]"
recorded_endpoint = "protein stability index"
readout_value = 2.26


Go through the items and report each one's protein stability index.
1. PSNRSQFSEIISSISDVKFSHSGR [F6Q]
2. PSNRSFFSEIFSSISDVKFSHSGR [I11F]
3. PSNRSFFSEIISSISWVKFSHSGR [D16W]
4. ASNRSFFSEIISSISDVKFSHSGR [P1A]
5. PSNRSPFSEIISSISDVKFSHSGR [F6P]
6. PSPRSFFSEIISSISDVKFSHSGR [N3P]

[A]
[2.89, 4.67, 1.99, 2.19, 3.02, 2.49]
